assay: in vivo; set-up: species or system mice; details: male, NOD.Cg-Rag1tm1Mom Il2rgtm1Wjl/SzJ (NRG), mouse, iv, total radioactivity, Biodistribution: Small Intestine
Where a SMILES comes first, the peptide text is derived from it. Bridges are numbered along the chain shown (N, C = ends). [ ]: non-standard residue; d: D form. The star is where a group is joined. X4 = O=C(O)CN1CCN(CC(=O)O)CCN(CC(=O)N[C@@H](CS(=O)(=O)O)C(=O)NCCCC[C@H](NC(=O)CNC(=O)CCCc2ccc(Cl)cc2)C(=O)*)CCN(CC(=O)O)CC1; 2Nal = N[C@@H](Cc1ccc2ccccc2c1)C(=O)O; Lys(iPr) = CC(C)NCCCC[C@H](N)C(=O)O
Measurement type: tissue uptake at 3 h

[
  {
    "Compound": "CC(C)NCCCC[C@H](NC(=O)[C@H]1CCC(=O)N[C@@H](CCCCNC(=O)[C@H](CCCCNC(=O)[C@H](CS(=O)(=O)O)NC(=O)CN2CCN(CC(=O)O)CCN(CC(=O)O)CCN(CC(=O)O)CC2)NC(=O)CNC(=O)CCCc2ccc(Cl)cc2)C(=O)N[C@@H](Cc2ccc(O)cc2)C(=O)N[C@@H](CCCCNC(C)C)C(=O)N[C@H](CCCNC(=N)N)C(=O)N[C@@H](Cc2ccc3ccccc3c2)C(=O)N[C@H](C)C(=O)N1)C(N)=O [[68Ga]Ga-BL34T1, metal not drawn] (K(X4)Y[Lys(iPr)][dR][2Nal][dA][dE][Lys(iPr)]-NH2; lactam N-7)",
    "Value reported": "0.89 %ID/g"
  }
]
